measurement_target: VAV1 (Homo sapiens, UniProt P15498+Q96SW2)
Construct: A heterozygous VAV1 C-terminal HiBiT knock-in pool was generated at Monte Rosa Therapeutics from a clonal Jurkat cell; endogenous in cells; host or cells: Jurkat clone stably expressing LgBiT, homozygous GSPT1-G575N; heterozygous VAV1-HiBiT knock-in pool
assay_overview: VAV1 degradation activity, VAV1-HiBiT knock-in Jurkat luminescence assay (Example A, Table 1)
Format: cell-based
condition_parameters: Jurkat, VAV1-HiBiT knock-in Jurkat cells, luminescence read at 6 and 24 hours; read-out: VAV1 Dmax %
parameter: Dmax (%)
# unit: % | format: bare number

Which Dmax value belongs to O=C1CCC(c2cccc(-c3cnc(N4C(=O)CCC45CC5)c(F)c3)c2Cl)C(=O)N1 (centres unmarked) ? 71.7

Another compound to check: Cn1ccc(COc2ccc(-c3ccc(Cl)c(C4CCC(=O)NC4=O)c3F)cc2)n1 (centres unmarked) 55.5

And what about the compound COC1CCCC(=O)N1Cc1ccc(-c2cccc(C3CCC(=O)NC3=O)c2Cl)cc1 (centres unmarked) ? 83.8

Query O=C1CCC(c2cccc(-c3ccc(N4CCn5ccnc5C4=O)cc3)c2Cl)C(=O)N1 (centres unmarked) next 89.6

Another compound: COc1ccc(-c2cccc(C3CCC(=O)NC3=O)c2Cl)cc1OC(F)F (centres unmarked) 47.8

CN1CCC(C)(C)N(c2ccc(-c3cccc(C4CCC(=O)NC4=O)c3Cl)cc2)C1=O (centres unmarked) ? 98.3

What about O=C1CCC(c2cccc(-c3ccc(C4COC(=O)N4)cc3)c2Cl)C(=O)N1 (centres unmarked) ? 14

Continue with O=C1CCC(c2cccc(-c3ccc(CN4Cc5nccn5CC4=O)cc3)c2Cl)C(=O)N1 (centres unmarked) 88.6

# iterate: Cc1cc(C)n(Cc2ccc(-c3cccc(C4CCC(=O)NC4=O)c3Cl)cc2)n1 (centres unmarked) 92.4

Further, for O=C1CN(CCOc2ccc(-c3cccc(C4CCC(=O)NC4=O)c3Cl)cc2)CCN1 (centres unmarked) ? 94

Also, O=C1CC[C@@H](c2cccc(-c3ccc(Cn4ccccc4=O)cc3)c2Cl)C(=O)N1 please. 94.6

Could you do the same for Cn1ccc(COc2ccc(-c3cc(C#N)cc(C4CCC(=O)NC4=O)c3Cl)cc2)n1 (centres unmarked) , please? 20

Queued: O=C1CCC(c2cccc(-c3ccc(OCCN4CCCC4)cc3)c2Cl)C(=O)N1 (centres unmarked) 40.9

Would you mind doing O=C1CCC(c2cccc(-c3ccc(Cn4cccn4)cc3)c2Cl)C(=O)N1 (centres unmarked) as well? 94

Same thing, different compound: Cn1ccc(CCc2ccc(-c3cccc(C4CCC(=O)NC4=O)c3Cl)cc2)n1 (centres unmarked) 94.1

For Nc1ncn(Cc2ccc(-c3cccc(C4CCC(=O)NC4=O)c3Cl)cc2)n1 (centres unmarked) then? 89.2

What about this compound? O=C1CCC(c2cccc(-c3ccc(NC(=O)c4ccno4)cc3)c2Cl)C(=O)N1 (centres unmarked) 73.5
